experiment: Solubility assessment in solvents; type: physicochemical; details: DMSO, organic solvent or mixture, thermodynamic from solid; read-out: Solubility at RT
readoutType: solubility at 10 min

Asked: Which solubility at 10 min value is on record for `COc1cc(OC)cc(N2CCN(C(=O)Nc3nc4cc(F)ccc4nc3OC)CC2)c1` ?
Given back: < 100 mg/mL

###

assay: Human pharmacokinetics, dose-ranging study; assay type: in vivo; conditions: human, plasma, po, 300 mg, oral capsule; 300 mg, 1 per week; Day 1; fed; read-out: AUC0-24
readoutType: AUC(0-t) (ng·h/mL)
I only need the number, in ng·h/mL, no unit after it.

Asked: Which AUC(0-t) value is on record for COc1cc(OC)cc(N2CCN(C(=O)Nc3nc4cc(F)ccc4nc3OC)CC2)c1 [RX-5902] ?
Given back: 8620

###

assay: Human pharmacokinetics, dose-ranging study; assay type: in vivo; settings: human, plasma, po, 250 mg, oral capsule; 250 mg, 3 per week; Day 15; fasted; read-out: Cmax
readoutType: Cmax (ng/mL)
I only need the number, in ng/mL, no unit after it.

Asked: Which Cmax value is on record for `COc1cc(OC)cc(N2CCN(C(=O)Nc3nc4cc(F)ccc4nc3OC)CC2)c1` ?
Given back: 403

###

assay: Human pharmacokinetics, dose-ranging study; type: in vivo; details: human, plasma, po, 225 mg, oral capsule; 225 mg, 1 per week; Day 1; fasted; read-out: T1/2 (converted)
readoutType: half-life (min)
I only need the number, in min, no unit after it.

Asked: Which half-life value is on record for `COc1cc(OC)cc(N2CCN(C(=O)Nc3nc4cc(F)ccc4nc3OC)CC2)c1` ?
Given back: 720

###

test: Human pharmacokinetics, dose-ranging study; type: in vivo; conditions: human, plasma, po, 25 mg, oral capsule; 25 mg, 1 per week; Day 1; fasted; read-out: T1/2 (converted)
readoutType: half-life
Answer with the number, then the unit.

Asked: Which half-life value is on record for COc1cc(OC)cc(N2CCN(C(=O)Nc3nc4cc(F)ccc4nc3OC)CC2)c1 [RX-5902] ?
Given back: 348 min
